- assay.details: NCI Yeast Anticancer Drug Screen. Data for the sgs1 mgt1 strain (AID 161);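 also: 0% = growth of cultures given vehicle only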
- experimental.context: S. cerevisiae sgs1 mgt1 strain, at 5.0 µM (retest, dose inferred, filed as 0.5), stronger effect = higher value
About 79,000 compounds went through this panel and 15% of them were active in at least one assay; those are over-represented in the sample as a whole.
I'd appreciate it if you could supply growth inhibition values for the items below.
Give bare numbers, in %.

# example entries with known answers
growth inhibition lookup needed for C#CC(CC(C)CC(C)(C)C)NC (stereo unspecified) , thanks. 0

growth inhibition lookup needed for CCOP(=O)(OCC)OC1c2[nH]ccc2-c2cc(C(=O)OC)[nH]c2C1OC (stereo unspecified) , thanks. -3

# batch size: 8; output growth inhibition per entry
1. NCc1ccccc1-c1c2nc(c(-c3ccccc3CN)c3ccc([nH]3)c(-c3ccccc3CN)c3nc(c(-c4ccccc4CN)c4ccc1[nH]4)C=C3)C=C2
2. COC1=C2C[C@@H](C)C[C@@H](OC)[C@@H](O)[C@H](C)/C=C(\C)[C@@H](OC(N)=O)[C@H](OC)/C=C\C=C(/C)C(=O)NC(=CC1=O)C2=O
3. CCC12C=CCN3CCC4(c5cc(C(c6ccccn6)c6cc7ccccc7n6C)c(OC)cc5N(C)C4C(O)(C(=O)OC)C1OC(C)=O)C32 (stereo unspecified)
4. O=C1C(Cl)=C(c2ccc([N+](=O)[O-])cc2)C(=O)c2c(O)cccc21
5. CC(=O)O[C@@H]1CO[C@H]2O[C@H]3[C@@H](C(C=O)=C[C@H](O)[C@@H]4C5=C(C(C)C)CC[C@]5(C)CC[C@@]34C)[C@@]2(O)C1=O
6. O=C1OC(=O)C2C1C1C(c3ccccc3)=C(c3ccccc3)C2(O)C2C(=O)OC(=O)C12 (stereo unspecified)
7. Cc1ccc(S(=O)(=O)OCC2OC(c3ccccc3)OC3C(CO)OC(c4ccccc4)OC23)cc1 (stereo unspecified)
8. CCCCCCCCCCCCSC(=NCC)NCC

1. 37
2. 86
3. -1
4. 28
5. 97
6. 16
7. -3
8. 98

====

I'd appreciate it if you could supply growth inhibition values for the items below.
- assay.details: NCI Yeast Anticancer Drug Screen. Data for the mlh1 rad18 strain (AID 175)
- experimental.context: S. cerevisiae mlh1 rad18 strain growth inhibition; at 5.0 µM (retest, dose inferred, filed as 0.5); stronger effect = higher value
- Description: Growth inhibition of yeast strains with defined genetic alterations is measured as a screen for potential anti-cancer activity. Selected strains with alterations in DNA damage repair or cell cycle control were exposed to compounds and growth inhibition was measured relative to vehicle treated controls. The strain used in this assay is mlh1 rad18
The panel holds about 79,000 compounds, 15% with a hit somewhere; the sample as a whole holds those more often.
Answers are plain numbers, in %.

# example entries with known answers
growth inhibition lookup needed for O=[N+]([O-])c1ccc(N/N=C/CCCCCCCCCCBr)c([N+](=O)[O-])c1 , thanks. -1

growth inhibition lookup needed for O=C(O)CC1c2ccccc2-c2ccccc21 , thanks. -7

growth inhibition lookup needed for Cc1cc(C(=O)CBr)c(CN2C(=O)c3ccccc3C2=O)c(=O)n1C , thanks. 64

growth inhibition lookup needed for CCC[CH2][Sn]([CH2]CCC)([O]N(C)C(=O)c1ccc(Br)cc1)[O]N(C)C(=O)c1ccc(Br)cc1 , thanks. 90

growth inhibition lookup needed for O=[N+]([O-])c1ccc(O)c(C=Nc2ccccc2)c1 , thanks. -96

# batch size: 2; output growth inhibition per entry
1. N#CC1C(=O)NC(=O)C(C#N)C1c1c(Cl)cccc1Cl (stereo not given)
2. Cc1ccc(S(=O)(=O)Nc2ccccc2C=O)cc1

1. 1
2. 14

====

- assay.details: NCI Yeast Anticancer Drug Screen. Data for the rad50 strain (AID 155);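 also: 0% = growth of vehicle-only cultures of the same strain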
- experimental.context: S. cerevisiae rad50 strain growth inhibition; at 5.0 µM (retest, dose inferred, filed as 0.5); stronger effect = higher value
Compounds without any hit were thinned out: in the full panel of roughly 79,000, 15% have a hit.
reported.metric: growth inhibition (%)
Numbers only, in %.

# example entries with known answers
growth inhibition lookup needed for CC(C)(C)c1ccc(C(C)(C)C)cc1 , thanks. 1

growth inhibition lookup needed for BrCc1ccc([Si](c2ccccc2)(c2ccccc2)c2ccc(CBr)cc2)cc1 , thanks. -3

growth inhibition lookup needed for CC(C)C[P+](c1ccccc1)(c1ccccc1)c1ccccc1 , thanks. 0

growth inhibition lookup needed for COC(=O)c1ccc([N+](=O)[O-])o1 , thanks. 7

growth inhibition lookup needed for O=C1c2cc([N+](=O)[O-])cc3cc([N+](=O)[O-])cc(c23)C(=O)N1CCNCCN1C(=O)c2cc([N+](=O)[O-])cc3cc([N+](=O)[O-])cc(c23)C1=O , thanks. 86

growth inhibition lookup needed for COc1ccc(NC2Oc3cc4c(cc3C(c3cccc(OC)c3OC)C2C)OCO4)cc1 (configuration not stated) , thanks. -24

growth inhibition lookup needed for O=S(=O)(C#Cc1ccccc1)c1ccccc1 , thanks. 12

growth inhibition lookup needed for Cn1c2nc(-[n+]3ccccc3)nc-2c([O-])n(C)c1=O , thanks. 1

# batch size: 6; output growth inhibition per entry
1. CC/C=C\C/C=C\C/C=C\CCCCCCCC(=O)OCC(O)CO (configuration not stated)
2. CCCCCCCCCCCCNC(=O)C[n+]1ccc(C(N)=O)cc1
3. Oc1ccc(C2CCc3ccccc32)cc1 (configuration not stated)
4. CC(=O)Nc1ccc(N=Cc2cc(Cl)cc(Cl)c2O)cc1
5. O=C(CN1CCCC1)Nc1nc(-c2ccc(Cl)cc2)cs1
6. O=C1/C(=C/c2cccc(F)c2)CCCc2ccccc21

0
-34
-6
82
55
3

====

- assay.details: NCI Yeast Anticancer Drug Screen. Data for the mec2-1 strain (AID 157)
- experimental.context: S. cerevisiae mec2-1 strain, at 50.0 µM
This is part of a sample that, as a whole, favours compounds with a hit. Of some 79,000 tested, about 15% had one in any assay. Activity calls are given as the source filed them. Cut-off read from the data, not from the text of the source: active = growth inhibition above about 70%; inactive = the rest.
# output must be one of active, inactive

Which outcome did this test record for the compound CC(/C=N/NS(=O)(=O)c1ccc(C)cc1)=C(c1ccccc1)c1ccccc1 ? inactive

Which outcome did this test record for the compound CCOC(=O)c1cccc(C)c1C(=O)c1ccc(C)cc1C ? active

Which outcome did this test record for the compound OC1c2cccn2-c2cc(Cl)ccc2SC1c1ccccc1 (centres undefined) ? active

Which outcome did this test record for the compound CCN(CC)CCCCCCNc1cc(Cl)cc2cccnc12 ? active

Which outcome did this test record for the compound NC(=O)SCC(=O)Nc1ccccc1 ? inactive

Which outcome did this test record for the compound O=C1C(Cl)=C(NCCC2CCCN3CCCCC23)C(=O)c2ccccc21 (centres undefined) ? inactive

Which outcome did this test record for the compound N#C/C(=C\c1ccc(Cl)cc1Cl)C(N)=S ? active

Which outcome did this test record for the compound COC(=O)c1nnn(-c2ccc(Cl)cc2Cl)c1C(=O)c1ccc(Cl)c(Cl)c1 ? active

Consider the record given below.
Which outcome did this test record for the compound CC(C)/C=C1\CCC(CN2CCOCC2)C1=O (centres undefined) ? inactive

====

- assay.details: NCI Yeast Anticancer Drug Screen. Data for the cln2 rad14 strain (AID 165);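 also: 0% = growth equal to vehicle treated cultures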
- experimental.context: S. cerevisiae cln2 rad14 strain, at 5.0 µM (retest, dose inferred, filed as 0.5)
About 79,000 compounds went through this panel and 15% of them were active in at least one assay; those are over-represented in the sample as a whole. Active and inactive are the calls of the source. Cut-off read from the data, not from the text of the source: active = growth inhibition above about 70%; inactive = the rest.
# output must be one of label 1 = active, label 0 = inactive

Which outcome did this test record for the compound CC12CCC3C(CCC4CC(O)CCC43C)C1CC1C2=NOC1O (configuration not stated) ? label 0

Which outcome did this test record for the compound CC(C)(O)[C@H](CCO)O[Si](c1ccccc1)(c1ccccc1)C(C)(C)C ? label 0

Which outcome did this test record for the compound Cn1c2c(c3ccccc31)CCN(CCN1CCN(c3cccc(Cl)c3)CC1)C2=O ? label 0

Which outcome did this test record for the compound O=C1CNC(=O)c2cc(Cl)ccc2N1 ? label 0

Which outcome did this test record for the compound O=C1C=CC(Nc2cccc([N+](=O)[O-])c2)C1Nc1cccc([N+](=O)[O-])c1 (configuration not stated) ? label 0

Which outcome did this test record for the compound CN=c1sc2c(n1C)C(=O)c1ccccc1C2=O ? label 0

Which outcome did this test record for the compound CCCCCCCCCc1ccc(OCC(O)CO)cc1 (configuration not stated) ? label 0

Which outcome did this test record for the compound CCCCCCC(/C=C/c1ccccc1)=N\O ? label 0

Which outcome did this test record for the compound O=[N+]([O-])c1ccc2nc(-c3ccccn3)[nH]c2c1 ? label 0

Which outcome did this test record for the compound CC1=C(C)C(=O)C2=C(OCCCO2)C1=O ? label 0

Which outcome did this test record for the compound O=[N+]([O-])c1ccc(N/N=C/CCCCCCCCCCBr)c([N+](=O)[O-])c1 ? label 0

Which outcome did this test record for the compound CC(C)[C@H](N)C(=O)NCCNC(=O)[C@@H](N)C(C)C ? label 1

Which outcome did this test record for the compound COc1cc(C(=O)CBr)c2ccc(Cl)cc2n1 ? label 0

Which outcome did this test record for the compound COC1=CC(=O)c2ncccc2C1=O ? label 0

Which outcome did this test record for the compound CSc1ccc(/C=C2\CNC/C(=C\c3ccc(SC)cc3)C2=O)cc1 ? label 0

Which outcome did this test record for the compound CC(=O)/C(=C\c1cccc(Cl)c1)C(=O)CCN(C)C ? label 0
